System: B16 melanoma cells
Experiment: Glycolipid biosynthesis-accelerating action in B16 melanoma cells (uptake of 14C-galactose into GSL fraction)
Type: cell-based
Details: Mus musculus, B16, 24 h; 10 μM; control 100; read-out: Glycolipid biosynthesis acceleration (%)
Description: B16 melanoma cells derived from neuroectoderm were put into a culture plate with 12 wells in an amount of 2×10^5 cells/well and cultured for 24 hours in Dulbecco modified Eagle's media containing 10% bovine fetal serum. Thereafter, the media were exchanged with the same culture broths containing 2-acylaminopropanol compounds shown in Table 2, and ^14 C-galactose was added thereto. […] The radioactivities of the GSL fractions thus obtained were measured by a liquid scintillation counter. […]

# COMPOUND, activity at 10 µM (%)
measured = [
    ("CCCCCCCCCC(=O)N[C@@H](CN1CCC(O)CC1)[C@@H](O)c1ccccc1 [drawing 13 (L-threo)]", 159),
    ("CCCCCCCCCC(=O)N[C@@H](CN1CCN(C)CC1)[C@@H](O)c1ccccc1", 169),
    ("CCCCCCCCCC(=O)N[C@@H](CN1CCC(O)CC1)[C@H](O)c1ccccc1 [drawing 13 (D-erythro)]", 188),
    ("CCCCCCCCCC(=O)N[C@@H](CN1CCC(O)C1)[C@@H](O)c1ccccc1 (stereo partly shown)", 161),
]

Data provenance is patent US5763438A.
